- Procedure text: modulators of CIT2-GFP expression in yeast, confirmation, S. cerevisiae, GFP fusion, cherry picks, mother/daughter gates (AID 2274)
- Test settings: S. cerevisiae CIT2-GFP strain, flow cytometry, 3 h; measured here: mother cell gate; at 10 µM; stronger effect = higher value
Parameter: GFP response, % of DMSO (%)

* CCS(=O)(=O)Nc1cccc(C2=NN(S(C)(=O)=O)C(c3ccccc3)C2)c1 (stereo unspecified) | 110
* COc1cccc(-c2nnc(NC(=O)c3ccc(S(=O)(=O)N4CC(C)OC(C)C4)cc3)o2)c1 (stereo unspecified) | 99.3
* NC(=O)CSCc1c(Cl)cccc1Cl | 92.3
* O=C(Nc1nccs1)C1CCCN1S(=O)(=O)c1ccc(F)cc1 (stereo unspecified) | 114
* Cc1c(O)ccc(C(=O)CN2CCN(c3ccc(F)cc3)CC2)c1O | 102
* O=C(COc1ccccc1)N1CCN(c2ncnc3c2cnn3-c2ccccc2)CC1 | 98.2
* CC(Oc1cccc(Cl)c1)C(=O)Nc1nc(-c2ccccn2)cs1 (stereo unspecified) | 81.6
* CCCCNC(=O)c1c(O)c2cccc3c2n(c1=O)CCC3 | 97.7
* Cc1ccc2[nH]c(C)c(/C=C/c3cc[n+](C)cc3)c2c1 | 211
* S=C(Nc1ccc(Cl)cc1)Nc1ccc2cn[nH]c2c1 | 104
* Cc1cc(S(=O)(=O)ON2C(=O)c3ccccc3C2=O)ccc1F | 98.7
